Provenance of the data: ChEMBL document CHEMBL3779893

Target: UniProtKB P11169
Test: Inhibition of human GLUT3 expressed in GLUT1 knock-out DLD1 cells assessed as ATP production co-incubated with 300 mM glucose for 16 hrs by CellTiter-Glo assay in presence of oxidative phosphorylation inhibitor rotenone
pIC50: −log10 of the molar value.
Endpoint Name: pIC50

[[record]]
smiles_entry = "COc1ccccc1N1CCN(c2ncnc3c2cnn3-c2ccccc2F)CC1"
endpoint_value = 7.40


[A] COc1cccc(-n2ncc3c(N4CCN(c5ccccc5OC)CC4)ncnc32)c1
[B] COc1ccc(N2CCN(c3ncnc4c3cnn4-c3ccccc3)CC2)cc1
When the recorded pIC50 values are compared, which is smaller: that of A or that of B ? In your reply, give the label of the chosen option. B
(B: 5.75, A: 6.77)

---

Target: Solute carrier family 2, facilitated glucose transporter member 1 (Homo sapiens, UniProt P11166)
Experiment: Inhibition of human GLUT1 expressed in DLD1 cells assessed as ATP production co-incubated with 100 mM glucose for 16 hrs by CellTiter-Glo assay in presence of oxidative phosphorylation inhibitor rotenone
pIC50: −log10 of the molar value.
Endpoint Name: pIC50

Recorded pIC50, per entry:
[[record]]
molecule = "COc1cccc(-n2ncc3c(N4CCN(c5ccccc5OC)CC4)ncnc32)c1"
endpoint_name = "pIC50"
endpoint_value = 6.70

[[record]]
molecule = "COc1ccccc1N1CCN(c2ncnc3c2cnn3C2CCCC2)CC1"
endpoint_name = "pIC50"
endpoint_value = 7.40

[[record]]
molecule = "COc1cc(C#N)ccc1N1CCN(c2ncnc3c2cnn3-c2ccccc2)CC1"
endpoint_name = "pIC50"
endpoint_value = 6.82


[P] N#Cc1ccccc1N1CCN(c2ncnc3c2cnn3-c2ccccc2)CC1
[Q] COc1ccccc1N1CCN(c2ncnc3c2cnn3-c2ccccc2F)CC1
Which one would you say has the larger pIC50 value: P , or Q ? In your reply, give the label of the chosen option. Q

[P] COc1ccccc1N1CCN(c2ncnc3c2cnn3-c2ccccc2)C(C)C1 (stereo unspecified)
[Q] COc1ccccc1N1CCN(c2ncnc3c2cnn3-c2cccc(C#N)c2)CC1
[R] COc1ccc(-n2ncc3c(N4CCN(c5ccccc5OC)CC4)ncnc32)cc1
[S] COc1ccccc1N1CCN(c2ncnc3c2cnn3-c2cccnc2)CC1
[T] COc1ccc(C(N)=O)cc1N1CCN(c2ncnc3c2cnn3-c2ccccc2)CC1
Task field, ranking: reported pIC50, descending order. When ranking, write the labels in the order the request describes. T, Q, P, R, S

---

Molecular target: UniProt:P11166
Assay: Inhibition of human GLUT1 expressed in DLD1 cells assessed as ATP production co-incubated with 100 mM glucose for 16 hrs by CellTiter-Glo assay in presence of oxidative phosphorylation inhibitor rotenone
Type: cell-based, DLD-1
pIC50: −log10 of the molar value.
Endpoint Name: pIC50

[a] COc1ccccc1N1CCN(c2ncnc3c2cnn3-c2ccccc2C)CC1
[b] COc1ccccc1N1CCN(c2ncnc3c2cnn3-c2ccc(C#N)cc2)CC1
[c] COc1ccccc1N1CCN(c2ncnc3c2cnn3-c2ncccc2F)CC1
Task for the reader: rank each entry by its pIC50, from the minimum upward. When ranking, write the labels in the order the request describes. c, b, a
(c: 7.10, b: 7.77, a: 8.00)

---

Target: Solute carrier family 2, facilitated glucose transporter member 3 (Homo sapiens, UniProt P11169)
Sequence (P11169 whole entry): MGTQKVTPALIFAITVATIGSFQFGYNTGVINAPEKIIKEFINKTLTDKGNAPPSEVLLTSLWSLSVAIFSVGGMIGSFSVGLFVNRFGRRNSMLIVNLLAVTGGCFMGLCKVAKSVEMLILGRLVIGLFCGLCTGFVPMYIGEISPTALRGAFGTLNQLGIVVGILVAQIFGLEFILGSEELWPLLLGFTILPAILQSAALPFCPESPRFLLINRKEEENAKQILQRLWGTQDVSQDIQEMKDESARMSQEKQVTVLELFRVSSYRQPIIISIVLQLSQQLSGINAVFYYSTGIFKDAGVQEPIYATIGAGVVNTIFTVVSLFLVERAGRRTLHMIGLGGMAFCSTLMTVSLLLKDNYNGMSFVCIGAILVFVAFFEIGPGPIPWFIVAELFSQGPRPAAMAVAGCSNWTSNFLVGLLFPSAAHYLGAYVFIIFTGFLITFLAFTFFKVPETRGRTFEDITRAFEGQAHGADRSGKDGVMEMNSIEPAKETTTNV
Assay: Inhibition of human GLUT3 expressed in GLUT1 knock-out DLD1 cells assessed as ATP production co-incubated with 300 mM glucose for 16 hrs by CellTiter-Glo assay in presence of oxidative phosphorylation inhibitor rotenone
Type: cell-based, DLD-1
pIC50: −log10 of the molar value.
Endpoint Name: pIC50

Recorded pIC50, per entry:
[[record]]
compound = "COc1ccccc1N1CCN(c2ncnc3c2cnn3-c2ccccc2)C(C)C1 (configuration not stated)"
endpoint_value = 6.32

[[record]]
compound = "Fc1cccc(N2CCN(c3ncnc4c3cnn4-c3ccccc3)CC2)c1"
endpoint_value = 6.27

[[record]]
compound = "COc1cccnc1N1CCN(c2ncnc3c2cnn3-c2ccccc2)CC1"
endpoint_value = 7.15

[[record]]
compound = "COc1ccncc1N1CCN(c2ncnc3c2cnn3-c2ccccc2)CC1"
endpoint_value = 7.22

[[record]]
compound = "COc1ccccc1N1CCN(c2ncnc3c2cnn3-c2ccccc2OC)CC1"
endpoint_value = 6.96

[[record]]
compound = "COc1ccc(F)cc1N1CCN(c2ncnc3c2cnn3-c2ccccc2)CC1"
endpoint_value = 8.00

[[record]]
compound = "COc1ccccc1N1CCN(c2ncnc3c2cnn3-c2cc(F)ccc2OC)CC1"
endpoint_value = 6.49

[[record]]
compound = "COc1cc(C#N)ccc1N1CCN(c2ncnc3c2cnn3-c2ccccc2)CC1"
endpoint_value = 6.77


[1] COc1ccccc1N1CCN(c2ncnc3c2cnn3-c2ccccc2C)CC1
[2] COc1ccccc1N1C[C@@H]2C[C@H]1CN2c1ncnc2c1cnn2-c1ccccc1
When the recorded pIC50 values are compared, which is smaller: that of 1 or that of 2 ? In your reply, give the label of the chosen option. 2

[P] Fc1ccccc1N1CCN(c2ncnc3c2cnn3-c2ccccc2)CC1
[Q] Oc1ccccc1N1CCN(c2ncnc3c2cnn3-c2ccccc2)CC1
[R] COc1ccccc1N1CCN(c2ncnc3c2cnn3-c2cccc(C#N)c2)CC1
[S] COc1ccccc1N1CCN(c2ncnc3c2cnn3-c2ccc(C#N)cc2)CC1
Task field, ranking: reported pIC50, descending order. When ranking, write the labels in the order the request describes. Q, S, R, P
(Q: 7.22, S: 6.70, R: 6.46, P: 6.17)

[1] COc1c(C#N)cccc1N1CCN(c2ncnc3c2cnn3-c2ccccc2)CC1
[2] COc1ccccc1N1CCN(c2ncnc3c2cnn3-c2ccccn2)CC1
Which one would you say has the larger pIC50 value: 1 , or 2 ? In your reply, give the label of the chosen option. 1

---

Biological target: UniProt P11166
Sequence (P11166 whole entry): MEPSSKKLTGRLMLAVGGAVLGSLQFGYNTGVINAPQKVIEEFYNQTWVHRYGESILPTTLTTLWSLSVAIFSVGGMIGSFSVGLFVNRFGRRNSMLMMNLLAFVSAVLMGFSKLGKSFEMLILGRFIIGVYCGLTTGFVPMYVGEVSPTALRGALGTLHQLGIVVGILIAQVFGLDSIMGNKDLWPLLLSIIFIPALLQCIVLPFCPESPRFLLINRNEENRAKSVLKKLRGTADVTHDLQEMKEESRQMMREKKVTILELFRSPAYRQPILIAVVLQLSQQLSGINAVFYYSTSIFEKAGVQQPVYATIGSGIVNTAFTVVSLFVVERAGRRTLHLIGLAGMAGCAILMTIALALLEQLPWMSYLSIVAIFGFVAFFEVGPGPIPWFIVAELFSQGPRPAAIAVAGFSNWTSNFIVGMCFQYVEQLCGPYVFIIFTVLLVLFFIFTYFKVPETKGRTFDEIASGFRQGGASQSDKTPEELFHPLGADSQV
Test: Inhibition of human GLUT1 expressed in DLD1 cells assessed as ATP production co-incubated with 100 mM glucose for 16 hrs by CellTiter-Glo assay in presence of oxidative phosphorylation inhibitor rotenone
pIC50: −log10 of the molar value.
Endpoint Name: pIC50

[[record]]
smiles_entry = "COc1ccc(-n2ncc3c(N4CCN(c5ccccc5OC)CC4)ncnc32)cn1"
endpoint_value = 7.00


[P] COc1cccc(F)c1N1CCN(c2ncnc3c2cnn3-c2ccccc2)CC1
[Q] COc1ccccc1N1CCN(c2ncnc3c2cnn3-c2cccc(F)c2)CC1
[R] Oc1ccccc1N1CCN(c2ncnc3c2cnn3-c2ccccc2)CC1
Task field, ranking: reported pIC50, descending order. When ranking, write the labels in the order the request describes. R, Q, P

---

Target: Solute carrier family 2, facilitated glucose transporter member 3 (Homo sapiens)
Assay: Inhibition of human GLUT3 expressed in GLUT1 knock-out DLD1 cells assessed as ATP production co-incubated with 300 mM glucose for 16 hrs by CellTiter-Glo assay in presence of oxidative phosphorylation inhibitor rotenone
pIC50: −log10 of the molar value.
Endpoint Name: pIC50

Recorded pIC50, per entry:
[[record]]
smiles_entry = "COc1ccccc1N1CCN(c2ncnc3c2cnn3-c2cccc(F)c2)CC1"
assayed_target = "Solute carrier family 2, facilitated glucose transporter member 3 (Homo sapiens)"
endpoint_name = "pIC50"
endpoint_value = 6.92

[[record]]
smiles_entry = "COc1ccccc1N1CCN(c2nccc3c2cnn3-c2ccccc2)CC1"
assayed_target = "Solute carrier family 2, facilitated glucose transporter member 3 (Homo sapiens)"
endpoint_name = "pIC50"
endpoint_value = 5.70

[[record]]
smiles_entry = "COc1cccc(F)c1N1CCN(c2ncnc3c2cnn3-c2ccccc2)CC1"
assayed_target = "Solute carrier family 2, facilitated glucose transporter member 3 (Homo sapiens)"
endpoint_name = "pIC50"
endpoint_value = 5.80

[[record]]
smiles_entry = "COc1ccc(-n2ncc3c(N4CCN(c5ccccc5OC)CC4)ncnc32)cc1"
assayed_target = "Solute carrier family 2, facilitated glucose transporter member 3 (Homo sapiens)"
endpoint_name = "pIC50"
endpoint_value = 6.77

[[record]]
smiles_entry = "COc1ccccc1N1CCN(c2ncnc3c2ncn3-c2ccccc2)CC1"
assayed_target = "Solute carrier family 2, facilitated glucose transporter member 3 (Homo sapiens)"
endpoint_name = "pIC50"
endpoint_value = 7.19


[a] COc1ccccc1N1CCN(c2ncnc3c2cnn3-c2cc(F)cc(F)c2)CC1
[b] COc1ccccc1N1CCC(c2ncnc3c2cnn3-c2ccccc2)CC1
When the recorded pIC50 values are compared, which is smaller: that of a or that of b ? In your reply, give the label of the chosen option. b
